Below is a list of entries, each paired with its recorded IC50 value.
Biological target: hCA I (Homo sapiens, UniProt P00915)
Sequence (P00915 whole entry): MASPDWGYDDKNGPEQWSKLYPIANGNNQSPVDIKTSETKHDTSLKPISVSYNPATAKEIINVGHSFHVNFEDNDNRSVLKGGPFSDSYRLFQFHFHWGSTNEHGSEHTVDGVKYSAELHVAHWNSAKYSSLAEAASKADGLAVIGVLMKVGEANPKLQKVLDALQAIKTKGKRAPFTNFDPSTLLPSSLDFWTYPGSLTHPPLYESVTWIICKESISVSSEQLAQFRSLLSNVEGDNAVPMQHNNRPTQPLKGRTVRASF
# output: bare number, implied unit nM

// below: answered compounds
| INPUT SMILES | IC50 (nM) |
| --- | --- |
| COc1ccc(/C=C(\NC(=O)c2ccccc2)C(=O)Nc2ccc(S(=O)(=O)NC(C)=O)cc2)cc1 | 27.7 |
| COc1ccc(/C=C(\NC(=O)c2ccccc2)C(=O)Nc2ccc(S(=O)(=O)Nc3nc(C)cc(C)n3)cc2)cc1 | 21 |
| COc1ccc(C=C2N=C(c3ccccc3)OC2=O)cc1 | 40.8 |
| COc1ccc(/C=C(\NC(=O)c2ccccc2)C(=O)Nc2ccc(S(N)(=O)=O)cc2)cc1 | 20.4 |

Query for hCA I (Homo sapiens, UniProt P00915): what IC50 does the record show for COc1ccc(/C=C(\NC(=O)c2ccccc2)C(=O)Nc2ccc(S(=O)(=O)Nc3nccs3)cc2)cc1 ?
22.4

What do we get for COc1ccc(/C=C(\NC(=O)c2ccccc2)C(=O)Nc2ccc(S(=O)(=O)NC(=N)N)cc2)cc1 ?
19.8

What do we get for COc1ccc(/C=C(\NC(=O)c2ccccc2)C(=O)Nc2ccc(S(=O)(=O)Nc3ncccn3)cc2)cc1 ?
25.7

What do we get for COc1ccc(/C=C(\NC(=O)c2ccccc2)C(=O)Nc2ccc(S(=O)(=O)Nc3nccc(C)n3)cc2)cc1 ?
28.9

----------
Molecular target: hCA II (Homo sapiens, UniProt P00918)
Test: biochemical
Format: biochemical
Conditions: based on Ki values
PROPERTY LABEL: times more potent than AZA toward hCA II (×)
# output: bare number, implied unit ×

// below: answered compounds
| INPUT SMILES | times more potent than AZA toward hCA II, × |
| --- | --- |
| COc1ccc(/C=C(\NC(=O)c2ccccc2)C(=O)Nc2ccc(S(=O)(=O)NC(C)=O)cc2)cc1 | 1.2 |
| COc1ccc(/C=C(\NC(=O)c2ccccc2)C(=O)Nc2ccc(S(=O)(=O)NC(=N)N)cc2)cc1 | 1.8 |
| COc1ccc(/C=C(\NC(=O)c2ccccc2)C(=O)Nc2ccc(S(=O)(=O)Nc3nccs3)cc2)cc1 | 1.3 |

Which times more potent than AZA toward hCA II is reported for this compound? COc1ccc(/C=C(\NC(=O)c2ccccc2)C(=O)Nc2ccc(S(=O)(=O)Nc3nc(C)cc(C)n3)cc2)cc1
1.5

----------
# pIC50 per entry for hCA II (Homo sapiens)
FYI, pIC50 means -log10 of a concentration in mol per litre.

// below: answered compounds
| COMPOUND | pIC50 |
| --- | --- |
| COc1ccc(C=C2N=C(c3ccccc3)OC2=O)cc1 [compound 2] | 7.34 |
| COc1ccc(/C=C(\NC(=O)c2ccccc2)C(=O)Nc2ccc(S(=O)(=O)Nc3ncccn3)cc2)cc1 [3e] | 7.59 |
| COc1ccc(/C=C(\NC(=O)c2ccccc2)C(=O)Nc2ccc(S(=O)(=O)NC(=N)N)cc2)cc1 [3b] | 7.61 |

// switching to the query compound
Which pIC50 is reported for this compound? COc1ccc(/C=C(\NC(=O)c2ccccc2)C(=O)Nc2ccc(S(N)(=O)=O)cc2)cc1 [3c]
7.52

----------
Target: hCA II (Homo sapiens)
class 1 if Ki is below 20 nM. class 0 if not; exact matches included in class 0.

Examples from the recorded data:
| MOLECULE | LABEL |
| --- | --- |
| COc1ccc(/C=C(\NC(=O)c2ccccc2)C(=O)Nc2ccc(S(=O)(=O)Nc3nccc(C)n3)cc2)cc1 [3f] | class 0 |
| COc1ccc(/C=C(\NC(=O)c2ccccc2)C(=O)Nc2ccc(S(=O)(=O)Nc3nccs3)cc2)cc1 [3d] | class 1 |
| COc1ccc(/C=C(\NC(=O)c2ccccc2)C(=O)Nc2ccc(S(=O)(=O)Nc3ncccn3)cc2)cc1 [3e] | class 0 |
| COc1ccc(/C=C(\NC(=O)c2ccccc2)C(=O)Nc2ccc(S(=O)(=O)NC(=N)N)cc2)cc1 [3b] | class 1 |
| COc1ccc(C=C2N=C(c3ccccc3)OC2=O)cc1 [compound 2] | class 0 |
| COc1ccc(/C=C(\NC(=O)c2ccccc2)C(=O)Nc2ccc(S(=O)(=O)Nc3nc(C)cc(C)n3)cc2)cc1 [3g] | class 1 |
| COc1ccc(/C=C(\NC(=O)c2ccccc2)C(=O)Nc2ccc(S(=O)(=O)NC(C)=O)cc2)cc1 [3a] | class 1 |

API: query returns whether the molecule falls strictly under 20 nM in Ki. Query: COc1ccc(/C=C(\NC(=O)c2ccccc2)C(=O)Nc2ccc(S(N)(=O)=O)cc2)cc1 [3c]
class 1
